Listed below: log10(IC50) values for each entry.
Biological target: human recombinant COX2 (hCOX2)
Sequence (P35354 1-604): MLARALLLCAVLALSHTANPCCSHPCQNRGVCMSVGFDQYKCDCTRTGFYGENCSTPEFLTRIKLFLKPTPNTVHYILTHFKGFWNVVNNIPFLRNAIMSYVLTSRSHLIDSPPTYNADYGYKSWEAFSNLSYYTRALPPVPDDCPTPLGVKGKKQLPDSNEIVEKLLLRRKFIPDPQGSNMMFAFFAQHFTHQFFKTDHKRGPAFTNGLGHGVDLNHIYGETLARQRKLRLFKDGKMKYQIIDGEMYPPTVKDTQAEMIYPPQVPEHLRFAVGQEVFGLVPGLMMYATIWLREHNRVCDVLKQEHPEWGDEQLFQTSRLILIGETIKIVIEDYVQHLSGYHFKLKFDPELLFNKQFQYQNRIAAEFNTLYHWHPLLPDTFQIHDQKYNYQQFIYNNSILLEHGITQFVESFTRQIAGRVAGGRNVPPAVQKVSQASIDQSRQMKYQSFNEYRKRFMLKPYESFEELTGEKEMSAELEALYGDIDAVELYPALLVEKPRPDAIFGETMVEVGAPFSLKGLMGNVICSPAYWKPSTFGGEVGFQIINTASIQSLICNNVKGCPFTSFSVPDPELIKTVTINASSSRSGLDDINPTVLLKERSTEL
Test: LCMS-based COX2 enzymatic inhibition assay (PGE2 quantification)
Type: biochemical
Set-up: COX2 2 minutes pge2/pge2d4 area ratio Avg; other: 2 minutes; readout pge2/pge2d4 area ratio; average; COX2 2 minutes pge2/pge2d4 area ratio Avg; LLE; average LLE; COX2 2 minutes pge2 area (counts) Avg; readout pge2 area (counts); other: 2 min; "ovine COX2 (oCOX2), human recombinant COX2 (hCOX2)"
Conditions: 2 minutes; readout pge2/pge2d4 area ratio; average; read-out: COX2 2 minutes pge2/pge2d4 area ratio Avg. IC50
Friendly reminder: values = log10 of IC50, unit nM.

| Query Smiles | Numeric Value |
| --- | --- |
| CS(=O)(=O)c1ccc(-c2ccc(F)c(OCc3cccs3)n2)cc1 | 1.30 |
| CS(=O)(=O)c1ccc(-c2ccc3ccn(Cc4ccoc4)c3n2)cc1 | 1.08 |
| CS(=O)(=O)c1ccc(-c2cccc(C(=O)Cc3cccs3)n2)cc1 | 3.10 |
| CS(=O)(=O)c1ccc(-c2cccc(C(=O)Nc3cccs3)n2)cc1 | 3.72 |
| COc1ncc(NCc2ccccn2)nc1-c1ccc(S(C)(=O)=O)cc1 | 3.33 |
| Cn1cccc1CNc1cccc(-c2ccc(S(C)(=O)=O)cc2)n1 | 1.69 |
| CS(=O)(=O)c1ccc(-n2ccc3ccc(/C(=N/O)c4cccs4)nc32)cc1 | 2.95 |
| COc1cc(NCc2cccs2)cc(-c2ccc(S(C)(=O)=O)cc2)n1 | 1.19 |

Next, consider the following molecule.
Data request: Report measured log10(IC50); entry is `CS(=O)(=O)c1ccc(-c2cncc(OCc3ccsc3)n2)cc1`
Data returned: 2.26

* * *

Biological target: ovine COX-1 (oCOX-1) (Ovis aries, UniProt P05979)
Construct: purchased Cayman Chemicals (Ann Arbor, Mich.)
Sequence (P05979 25-600): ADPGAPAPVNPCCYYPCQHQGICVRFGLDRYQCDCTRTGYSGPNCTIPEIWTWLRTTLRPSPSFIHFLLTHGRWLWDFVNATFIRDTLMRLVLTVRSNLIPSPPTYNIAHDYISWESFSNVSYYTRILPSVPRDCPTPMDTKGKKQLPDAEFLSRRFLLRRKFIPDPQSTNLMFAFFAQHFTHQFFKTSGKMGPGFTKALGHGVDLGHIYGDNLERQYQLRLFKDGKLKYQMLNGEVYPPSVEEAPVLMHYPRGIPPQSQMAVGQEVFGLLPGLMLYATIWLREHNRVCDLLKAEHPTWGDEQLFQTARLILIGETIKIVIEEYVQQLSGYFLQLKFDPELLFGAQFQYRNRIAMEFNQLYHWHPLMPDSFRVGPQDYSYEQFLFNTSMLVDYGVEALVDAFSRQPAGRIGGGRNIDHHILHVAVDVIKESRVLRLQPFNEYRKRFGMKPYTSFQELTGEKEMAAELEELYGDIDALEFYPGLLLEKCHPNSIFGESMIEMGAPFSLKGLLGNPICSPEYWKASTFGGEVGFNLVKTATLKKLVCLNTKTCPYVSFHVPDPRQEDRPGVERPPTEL
Assay: LCMS-based COX-1 enzymatic inhibition assay (PGE2 quantification)
Format: biochemical
Conditions: 10 minutes; readout pge2 area (counts); average LLE
Measured Attribute: COX1 10 minutes pge2 area (counts) Avg. LLE
Give a plain numeric answer without units written out.

Data request: Report measured COX1 10 minutes pge2 area (counts) Avg. LLE; entry is `Cc1ccsc1CNc1cccc(-c2ccc(S(C)(=O)=O)cc2)n1`
Data returned: 0.564
